TEST: qHTS assay to identify small molecule antagonists of the estrogen receptor alpha (ER-alpha) signaling pathway using the BG1 cell line (AID 743080);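 also: BG1 cells stimulated with 17beta-estradiol alongside compound; nearly all actives have a fitted effect of over 25% in size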
PROTOCOL CONDITIONS: BG1Luc4E2 ERE-luciferase antagonist mode, luminescence; series mostly up to 70.3 µM
Inconclusive results are not listed. The source made the active and inactive calls. Calls follow the shape of the full dose curve.
Choose the fitting class; nothing outside yes (1) (active), no (0) (inactive) is accepted.

// query Test call for this compound, please: "CCCN1CCC[C@@H]2Cc3nc(N)ncc3C[C@H]21"
// result no (0)

// query Another compound to look at: "N#CN"
// result no (0)

// query Also "Clc1nc(Cl)nc(Nc2ccccc2Cl)n1" ?
// result no (0)

// query Please give the result for "O=C(Cl)C(Cl)Cl" too.
// result no (0)

// query Item: "Cc1cccc2sc3nncn3c12"
// result no (0)

// query // same read-out, input: "O=P(O)(O)c1ccccc1"
// result no (0)

// query Try the compound "NCCOS(=O)(=O)O"
// result no (0)

// query Next: "CCCCOC(C)=O"
// result no (0)

// query And the next one, "CN(C)CCc1c[nH]c2cccc(OP(=O)(O)O)c12" ?
// result no (0)

// query "CC(C)(C)c1cc(O)ccc1O" , same question.
// result no (0)

// query Another compound to check: "COc1cccc([C@@]2(O)CCCC[C@@H]2CN(C)C)c1"
// result no (0)

// query // repeat for "N[C@@H]1C[C@H]1c1ccccc1" and report
// result no (0)

// query Lookup "CCSC(=O)Cl"
// result no (0)

// query What would you report for "O=C1CC(=O)NC(=O)N1" ?
// result no (0)

// query CC1NCCOC1c1ccccc1 (stereo not drawn) ?
// result no (0)

// query Consider next the compound "NC(=O)OCCCc1ccccc1" in the same way.
// result no (0)

// query Entry to check: "CC(C)(C)C(=O)Cl"
// result no (0)

// query Now try CCOC(=O)C(Cl)Cc1cc(-n2nc(C)n(C(F)F)c2=O)c(F)cc1Cl (stereo not drawn) .
// result no (0)

// query Item: "C=C(Cl)CCl"
// result no (0)

// query Try this compound next: "CCC1(CC)C(=O)C=CNC1=O"
// result no (0)

// query Please do the same for "CN(C)CCN(C)C" as well.
// result no (0)

// query Thanks! And Cc1ccc2c(c1)C1CN(C)CCC1N2 (stereo not drawn) ?
// result no (0)

// query And the next one, "O=C(O)C(Br)(Br)Br" ?
// result no (0)

// query Lookup "NNC(N)=O"
// result no (0)

// query Same question, "O=C(O)c1c(Cl)ccc2cc(Cl)cnc12" this time
// result no (0)

// query Follow-up item: "CCOP(=O)(CN(CCO)CCO)OCC"
// result no (0)

// query Do the same for NC(=O)CS(=O)C(c1ccccc1)c1ccccc1 (stereo not drawn) please
// result no (0)

// query Please answer likewise for ClCC1CO1 (stereo not drawn)
// result no (0)

// query And for "C=C(C)[C@H]1CN[C@H](C(=O)O)[C@H]1CC(=O)O" ?
// result no (0)

// query How about "COc1ccc(CN2CCNCC2)c(OC)c1OC" ?
// result no (0)

// query What about this compound? "[O-][Br+2]([O-])O"
// result no (0)

// query Now the compound "N#CN=C1SCCN1Cc1ccc(Cl)nc1"
// result no (0)

// query Next compound up: "Clc1cc2c(cc1Cl)Oc1cc(Cl)c(Cl)cc1O2"
// result yes (1)

====

TESTED ON: Estrogen receptor (Homo sapiens) (UniProt P03372)
Sequence (P03372 whole entry, looked up): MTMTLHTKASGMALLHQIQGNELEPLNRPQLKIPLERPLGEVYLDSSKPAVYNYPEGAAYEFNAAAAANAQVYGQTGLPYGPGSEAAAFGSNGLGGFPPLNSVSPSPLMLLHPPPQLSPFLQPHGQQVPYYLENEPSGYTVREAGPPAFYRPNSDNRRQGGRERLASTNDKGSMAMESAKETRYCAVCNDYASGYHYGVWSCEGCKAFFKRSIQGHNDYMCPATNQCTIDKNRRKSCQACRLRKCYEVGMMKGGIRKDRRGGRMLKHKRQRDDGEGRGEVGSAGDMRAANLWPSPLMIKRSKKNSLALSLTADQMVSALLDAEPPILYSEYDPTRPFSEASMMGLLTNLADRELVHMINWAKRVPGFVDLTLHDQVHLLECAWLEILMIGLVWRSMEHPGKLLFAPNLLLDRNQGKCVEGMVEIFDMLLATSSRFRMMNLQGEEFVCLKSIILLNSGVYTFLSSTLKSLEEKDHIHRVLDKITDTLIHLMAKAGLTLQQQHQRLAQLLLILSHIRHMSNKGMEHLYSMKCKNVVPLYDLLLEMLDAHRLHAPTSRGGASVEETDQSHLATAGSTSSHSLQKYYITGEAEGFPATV
TEST: qHTS assay to identify small molecule agonists of the estrogen receptor alpha (ER-alpha) signaling pathway using the BG1 cell line (AID 743079); also: % is scaled to controls: 0 for no effect and ±100 for the full control effect; nearly all actives have a fitted effect of over 20% in size
PROTOCOL CONDITIONS: BG1Luc4E2 cells, ERE-luciferase agonist, 22 h; at 70.3 µM (top of the series)
Records with an inconclusive call do not appear.
MEASURED PARAMETER: activation (%)
Numeric answer only, unit % assumed.

// query Entry "Cc1cc(OC(=O)N(C)C)nn1C(=O)N(C)C" : reported activation = ?
// result -8.77

// query Another: "CCN(CC)CCOC(=O)C(O)(c1ccccc1)c1ccccc1"
// result 1.82

// query Please give the result for "NC(=O)OCCCc1ccccc1" too.
// result 2.88

// query Repeat with "CCCN1CCC[C@@H]2Cc3nc(N)ncc3C[C@H]21"
// result -11.9

// query Now consider "NCCOS(=O)(=O)O" and answer again.
// result -1.11

// query # iterate: "COc1cccc(C=O)c1"
// result -1.53

// query Next: "Nc1c(Cl)c(F)nc(OCC(=O)O)c1Cl"
// result -0.92

// query Could you do the same for "O=CCCl" , please?
// result 14.1

// query Try this compound too: "O=C/C=C/c1ccco1"
// result 10.7

// query Also CCNP(=S)(OC)O/C(C)=C/C(=O)OC(C)C (stereo unspecified) , if possible.
// result 10.8

// query Also, "Clc1nc(Cl)nc(Nc2ccccc2Cl)n1" please.
// result 9.21

// query Ok, now Cc1ccc2c(c1)C1CN(C)CCC1N2 (stereo unspecified)
// result -4.51

// query # iterate: OCC(Cl)CCl (stereo unspecified)
// result 3.3

// query "[O-][Br+2]([O-])O" ?
// result 1.35

// query Subsequent entry: "CCOP(=S)(OCC)SCCl"
// result 9.52

// query Now consider CC(O)CCl (stereo unspecified) .
// result 8.02

// query Subsequent entry: C(COCC1CO1)OCC1CO1 (stereo unspecified)
// result 0.393

// query Consider next the compound "C=C(Cl)CCl" in the same way.
// result 0.667

// query "Cc1ccc(-c2nc3ccc(C)cn3c2CC(=O)N(C)C)cc1" ?
// result 15.6

// query Try the compound CC1N=C(N)OC1c1ccccc1 (stereo unspecified)
// result 10.7

// query Repeat for the following compound: "C/C(=N\NC(=O)Nc1cc(F)cc(F)c1)c1ncccc1C(=O)O"
// result -0.0536

// query Queued: "CCNc1nc(NCC)nc(SC)n1"
// result -15.9

// query Ok, now "C[C@H]1CCCC(=O)CCC/C=C/c2cc(O)cc(O)c2C(=O)O1"
// result -34.9

// query For "O=P(O)(O)c1ccccc1" then?
// result 0.284

// query Same lookup for "CCOC(=O)NC(C)(C)Cc1ccc(Cl)cc1" , please.
// result 6.17

// query And "Cc1cccc2sc3nncn3c12" ?
// result 13.8

// query What about "CS(=O)(=O)c1ccc(C(=O)C2C(=O)CCCC2=O)c(Cl)c1COCC(F)(F)F" ?
// result 14.7

// query Subsequent entry: "CN(C)CCN(C)C"
// result 18.6

// query What about "N[C@@H](Cc1ccc(Oc2cc(I)c(O)c(I)c2)c(I)c1)C(=O)O" ?
// result -1.5

// query Check "CCOP(=O)(CN(CCO)CCO)OCC" too.
// result -2.5

// query "Clc1ccc(C(Cl)(Cl)Cl)cn1" , same question.
// result -9.37

====

TEST: qHTS assay to identify small molecule antagonists of the sonic hedgehog signaling (Shh) pathway (AID 1259369); also: nearly all actives have a fitted effect of over 45% in size
PROTOCOL CONDITIONS: NIH/3T3 Gli1-Luc reporter, Shh antagonist, luminescence 24 h; series mostly up to 92.4 µM
Records with an inconclusive call do not appear. Activity calls are given as the source filed them. Calls come from the whole dose curve.
# valid calls are active, inactive; nothing else

// query Outcome logged for CC(O)CCl (centres undefined) in this assay:
// result inactive

// query Field entry: "c1cncc([C@@H]2CCCCN2)c1"
// result inactive

// query Same question, "CCCN1CCC[C@@H]2Cc3[nH]ncc3C[C@H]21" this time
// result inactive

// query Request: "Clc1nc(Cl)nc(Nc2ccccc2Cl)n1"
// result inactive

// query Ok, now "COP(=O)(OC)O/C(C)=C/C(=O)N(C)C"
// result inactive

// query Repeat for the following compound: "Oc1ccc2c3c1O[C@H]1[C@@H](O)C=C[C@H]4[C@@H](C2)NCC[C@@]341"
// result active

// query Try the compound "Cc1ccc(-c2nc3ccc(C)cn3c2CC(=O)N(C)C)cc1"
// result inactive

// query Item: "CCCC(C)(COC(N)=O)COC(N)=O"
// result active

// query Also CCCC(C)C1(CC)C(=O)N=C(S)NC1=O (centres undefined) , if possible.
// result inactive

// query Do the same for "CCC(=O)c1ccc(Cl)cc1" please
// result inactive

// query Query "Cc1cc(OC(=O)N(C)C)nn1C(=O)N(C)C" next
// result inactive

// query Next: O=C(NC(O)C(Cl)(Cl)Cl)NC(O)C(Cl)(Cl)Cl (centres undefined)
// result inactive

// query Could you do the same for "O=C(Cl)C(Cl)Cl" , please?
// result inactive

// query Then "Cc1cccc2sc3nncn3c12" ?
// result inactive

// query What would you report for "C=CC(=O)OCCN(C)C" ?
// result inactive

// query Lookup "CCN(CC)C1CCCCC1"
// result inactive

// query Repeat with CCOC(=O)C(SP(=S)(OC)OC)c1ccccc1 (centres undefined)
// result inactive

// query Field entry: "Cc1ccc(S(=O)(=O)N[C@@H](CCCCN)C(=O)CCl)cc1"
// result inactive

// query Next entry: "CCOP(=O)(CN(CCO)CCO)OCC"
// result inactive

// query Would you kindly repeat that for "CCC1(CC)C(=O)C=CNC1=O" ?
// result inactive

// query Please give the result for "O=C(O)c1c(Cl)ccc2cc(Cl)cnc12" too.
// result inactive

// query Also need "O=S1(=O)OCCO1" , thanks.
// result inactive

// query Continue with "C[C@@H](N)[C@@H](O)c1ccccc1"
// result inactive

// query Record: "NCC1(CC(=O)O)CCCCC1"
// result inactive

// query Lookup "CCC(CC)(CNC(=O)CCCO)c1cccc(OC)c1"
// result inactive

// query Next record, please: "COc1cccc(C=O)c1"
// result inactive

// query Try the compound "ClCCCCCCCl"
// result inactive

// query Repeat for the following compound: CC(Cc1ccccc1)NCCn1cnc2c1c(=O)n(C)c(=O)n2C (centres undefined)
// result inactive

// query Would you kindly repeat that for "C[N+]1(C)CCCCC1" ?
// result inactive

Every entry's value here was drawn from PubChem BioAssay (Tox21).
